Experiment: basal S. cerevisiae growth modulation, no modifier, primary screen, OD600, strain BY4716, 24 h, basal condition (AID 1173)
Conditions: OD600, 24 h, higher = more signal, called active from +8 up or from −8 down
Okay, here is how we bin by z-score: low group = under -0.2, middle group = from -0.2 up to 0.5, high group = 0.5 and over

| COMPOUND | ANSWER_LABEL |
| --- | --- |
| O=C1[C@H]2C=C(Br)[C@H](C[C@@H]2OCCCCO)[C@@]12CO2 | middle group |
| CCOC(=O)[C@H]1C/C=C/C[C@H](C(=O)OCC)C(=O)O[C@H]2[C@@H](OC)O[C@H](CO)[C@@H](OC(=O)Nc3cccc(F)c3)[C@@H]2OC1=O | low group |
| COCCOC(=O)N1C(=O)[C@@]2(c3cc(C#CCCO)ccc31)[C@H](C(=O)Nc1nc3ccccc3s1)[C@H]1C(=O)O[C@H](c3ccccc3)[C@H](c3ccccc3)N1[C@@H]2c1ccc(OCCO)cc1 | high group |
| CN(C)C(=O)[C@]1(Cc2ccccc2N=[N+]=[N-])N=C(c2ccc(OCCCO)cc2)O[C@@H]1c1ccccc1 | low group |
| [N-]=[N+]=NCc1ccccc1C[C@]1(C(=O)NCC(O)CO)N=C(c2ccc(OCCCO)cc2)O[C@H]1c1ccccc1 (some centres not stated) | low group |
| CCCCCN1CC=CC23O[C@@H]4/C=C\CCCOC(=O)C4[C@H]2C(=O)N(C(CO)C(C)C)[C@@H]3C1=O (some centres not stated) | middle group |
| CN1C(=O)C2C=CC(C(O)c3cccs3)N(Nc3ccccc3)C2C1=O (configuration not stated) | high group |
| COc1cc2c(cc1OC)CN(C(=O)[C@H]1[C@@H]3C(=O)O[C@@H](c4ccccc4)[C@@H](c4ccccc4)N3[C@@H](c3ccc(O)cc3)[C@]13C(=O)Nc1ccc(C#CCNC(N)=O)cc13)CC2 | middle group |
| C=CCN1C(=O)[C@]2(O[C@H](CCO)[C@@H]([Si](C)(C)c3ccc(OC)cc3)[C@@H]2C)c2cc(N3CCCCC3=O)ccc21 | high group |
| Cc1ccc(S[C@]2(C(=O)NCC(C)C)CC(=O)N(Cc3cc(C(F)(F)F)cc(C(F)(F)F)c3)[C@@H]2c2ccc(CO)cc2I)cc1 | low group |
| CN(C)CCCNC(=O)[C@@]1(c2ccc([N+](=O)[O-])cc2)CC(=O)N(C2CCCCC2)[C@@H]1c1ccc(CO)cc1 | low group |
| CCOC(=O)[C@H]1C/C=C/C[C@H](C(=O)OCC)C(=O)O[C@H]2[C@@H](OC)O[C@H](CO)[C@@H](OC(=O)Nc3ccc(C#N)cc3)[C@@H]2OC1=O | high group |
| O=C1O[C@H](c2ccccc2)[C@H](c2ccccc2)N2[C@H]1[C@@H](C(=O)Nc1nc3ccccc3s1)[C@]1(C(=O)Nc3ccc(C#CC4(O)CCCCCC4)cc31)[C@H]2c1ccc(OCCO)cc1 | high group |
| COCCCNC(=O)[C@@]1(Cc2ccccc2N=[N+]=[N-])N=C(c2ccc(OCCCO)cc2)O[C@H]1c1ccccc1N=[N+]=[N-] | middle group |
| O=C1NC(=O)C2C1C=CC(C(O)c1cccc3ccccc13)N2Nc1ccccn1 (configuration not stated) | middle group |
| CN(C)C(=O)[C@]1(Cc2ccccc2CN=[N+]=[N-])N=C(c2ccc(OCCCO)cc2)O[C@@H]1c1ccccc1CN=[N+]=[N-] | low group |

---

// reported composite z-score per item
Biological target: Follistatin-related protein 3 (Homo sapiens) (UniProt O95633)
Sequence (O95633 whole entry, looked up): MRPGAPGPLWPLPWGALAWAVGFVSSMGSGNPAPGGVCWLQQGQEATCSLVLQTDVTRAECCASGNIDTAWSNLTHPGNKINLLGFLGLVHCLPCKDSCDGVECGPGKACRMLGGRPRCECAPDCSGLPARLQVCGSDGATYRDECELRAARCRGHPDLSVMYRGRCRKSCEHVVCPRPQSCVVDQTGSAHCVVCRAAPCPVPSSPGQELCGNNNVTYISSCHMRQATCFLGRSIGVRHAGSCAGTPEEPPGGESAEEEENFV
Test: FSTL3 binders on small-molecule microarrays, primary screen, biochemical, small-molecule microarray, 635 nm fluorescence (AID 1105);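 further: score merges emission near 667 nm and signal to noise per printed spot across three slides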
Details: FSTL3 binding, higher = more signal

| SUBSTANCE_SMILES | SUBJECT_OF_TEST | composite z-score |
| --- | --- | --- |
| C[N+](C)(C)CCCCNC(=O)[C@H]1C[C@H]2C(=O)N[C@@H](Cc3ccccc3)C(=O)N2[C@H]1c1ccc(O)cc1 | Follistatin-related protein 3 (Homo sapiens) (UniProt O95633) | 0.953 |
| COC(=O)c1c(CC[C@@H](CO)NC(=O)N[C@H](Cn2cc(Cc3ccccc3)nn2)C(C)C)oc(C(C)=O)c1C(=O)OC | Follistatin-related protein 3 (Homo sapiens) (UniProt O95633) | 0.678 |
| O=C1[C@H]2C=C(Br)[C@H](C[C@@H]2OCCCCO)[C@@]12CO2 | Follistatin-related protein 3 (Homo sapiens) (UniProt O95633) | -0.0883 |
| CCCCC=C[C@@H](NC(=O)Oc1cccc(C(F)(F)F)c1)c1ccccc1 | Follistatin-related protein 3 (Homo sapiens) (UniProt O95633) | 0.719 |

---

Target: Follistatin (Homo sapiens) (UniProt P19883)
Sequence (P19883 whole entry, looked up): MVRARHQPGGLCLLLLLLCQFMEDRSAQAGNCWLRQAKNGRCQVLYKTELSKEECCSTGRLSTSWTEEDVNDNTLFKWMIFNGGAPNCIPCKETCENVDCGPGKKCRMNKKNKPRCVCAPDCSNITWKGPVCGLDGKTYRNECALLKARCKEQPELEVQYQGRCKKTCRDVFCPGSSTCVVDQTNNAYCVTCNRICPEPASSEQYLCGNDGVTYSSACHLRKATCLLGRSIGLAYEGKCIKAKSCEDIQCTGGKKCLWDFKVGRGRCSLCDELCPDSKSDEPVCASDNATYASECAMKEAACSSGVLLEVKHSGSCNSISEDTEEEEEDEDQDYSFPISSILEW
Assay: follistatin binders on small-molecule microarrays, primary screen, biochemical, small-molecule microarray, 635/667 nm fluorescence (AID 1132)
Conditions: FST binding, 635 nm fluorescence, higher = more signal
// reported composite z-score per item

| COMPOUND | SUBJECT_OF_TEST | composite z-score |
| --- | --- | --- |
| CN1C(=O)C2C=CC(C(O)C3CC=CCC3)N(NC(=O)OC(C)(C)C)C2C1=O (centres undefined) | Follistatin (Homo sapiens) (UniProt P19883) | 1.25 |
| [N-]=[N+]=Nc1ccccc1[C@H]1OC(c2ccc(OCCCO)cc2)=N[C@@]1(Cc1ccccc1)C(=O)O | Follistatin (Homo sapiens) (UniProt P19883) | 1.17 |
| COc1cc2c(cc1OC)CN(C(=O)[C@H]1[C@@H]3C(=O)O[C@@H](c4ccccc4)[C@@H](c4ccccc4)N3[C@@H](c3ccc(O)cc3)[C@]13C(=O)Nc1ccc(C#CCNC(N)=O)cc13)CC2 | Follistatin (Homo sapiens) (UniProt P19883) | 1.29 |
| C=CCOC(=O)[C@@H]1[C@H]2C(=O)O[C@H](c3ccccc3)[C@H](c3ccccc3)N2[C@H](c2ccc(OCCOC(=O)[C@@H]3C[C@@H]4C(=O)N[C@@H](CCCCN(C)C)C(=O)N4[C@@H]3c3ccc(O)cc3)cc2)[C@@]12C(=O)Nc1ccc(I)cc12 | Follistatin (Homo sapiens) (UniProt P19883) | 1.2 |

---

// reported composite z-score per item
System: Chordin-like protein 2 (CHRDL2)
Test: CHRDL2 small-molecule binders, primary screen, biochemical, small-molecule microarray, 635 nm fluorescence (AID 1126);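 further: printed compound slides probed with Chrdl2 protein at 4 µg/mL for 1 h at 4 C; score merges 667 nm emission intensity with signal to noise over three replicate slides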
Conditions: small-molecule microarray binding, fluorescence 635 nm; higher = more signal
MEASURED_QUANTITY: composite z-score

| COMPOUND | VAL |
| --- | --- |
| C=CCNC(=O)[C@@H]1[C@H]2C(=O)O[C@H](c3ccccc3)[C@H](c3ccccc3)N2[C@H](c2ccc(OCCO)cc2)[C@@]12C(=O)Nc1ccc(C#Cc3ccc(OC)cc3)cc12 | 0.605 |
| CN(C)C(=O)[C@]1(Cc2ccccc2N=[N+]=[N-])N=C(c2ccc(OCCCO)cc2)O[C@@H]1c1ccccc1 | 0.0709 |
| CC1CC/C=C\[C@H]2OC34C=CCN(c5ccc(Cl)cc5)C(=O)[C@H]3N(CCO)C(=O)[C@]4(C)C2C(=O)O1 (stereo partly drawn) | -0.961 |
| C=C(COC)/C(=C/C[C@H](OC(=O)c1ccncc1)c1ccc(OCCO)cc1)c1cnc2ccccc2c1 | 1.26 |
| COc1ccc(CCNC(=O)[C@@]2(C)c3ccccc3C(=O)N(Cc3cc(F)cc(C(F)(F)F)c3)[C@H]2c2ccc(CO)cc2)cc1 | 0.126 |
| CC(C)N1C(=O)[C@@]2(Cc3ccccc31)c1ccccc1C(=O)N(C1CCCCC1)[C@H]2c1ccc(CO)cc1 | 0.78 |
| [N-]=[N+]=NCc1ccccc1C[C@]1(C(=O)NCC(O)CO)N=C(c2ccc(OCCCO)cc2)O[C@H]1c1ccccc1 (stereo partly drawn) | -0.911 |
| CC(=O)NCCCC[C@@H]1NC(=O)[C@@H]2C[C@H](C(=O)NCCCCN(C)C)[C@H](c3cccc(OCCO)c3)N2C1=O | 0.462 |

---

Experiment: basal S. cerevisiae growth modulation, no modifier, primary screen, OD600, strain BY4716, 24 h, basal condition (AID 1173)
Details: OD600, 24 h, higher = more signal, called active from +8 up or from −8 down
MEASURED_QUANTITY: z-score

| COMPOUND | VAL |
| --- | --- |
| COc1ccc(CCN2C(=O)[C@@]3(Cc4ccccc42)c2ccccc2C(=O)N(Cc2ccccc2C(F)(F)F)[C@H]3c2ccc(CO)cc2)cc1 | 0.512 |
| CN1C2C=C(CCCO)C(C3C(=O)N(C(N)=O)C(=O)C32)C1c1ccc(CN2CCCC2)cc1 (stereo not drawn) | 0.464 |
| COc1ccc([Si](C)(C)[C@H]2[C@H](CC(=O)N3CCC[C@H]3CO)O[C@@]3(C(=O)N(Cc4cccc(N5C(=O)c6cccc7cccc5c67)c4)c4ccccc43)[C@@H]2C)cc1 | 0.547 |
